Every entry's value here was drawn from patent US6858210B1.

Measured pIC50 accompanies every entry in the list below.
- tested_on: affinity purified β2GPI-dependent antiphospholipid antibody
- assay_method_text: Competitive inhibition ELISA: recombinant β2GPI proteins compete for antibody binding to coated full length recombinant β2GPI
- Parameters: species or system human
- measurement_parameters: Ab 6652; read-out: 50% (concentration to give 50% inhibition)
pIC50: −log10 of the molar value.

molecule: recombinant β2GPI domain 5 with GlyHis6 (----5) (protein) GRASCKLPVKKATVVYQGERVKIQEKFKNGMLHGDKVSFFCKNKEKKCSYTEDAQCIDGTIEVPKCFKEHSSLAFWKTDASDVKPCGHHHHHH
pIC50: < 4.33
//
molecule: ---45: recombinant β2GPI deletion mutant with domains 4, 5 (protein) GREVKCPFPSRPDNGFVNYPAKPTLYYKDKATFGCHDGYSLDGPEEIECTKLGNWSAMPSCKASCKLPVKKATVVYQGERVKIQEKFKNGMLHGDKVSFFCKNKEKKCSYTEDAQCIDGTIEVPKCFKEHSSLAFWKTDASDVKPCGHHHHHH
pIC50: < 5.30
//
molecule: -2345: recombinant β2GPI deletion mutant with domains 2-5 (protein) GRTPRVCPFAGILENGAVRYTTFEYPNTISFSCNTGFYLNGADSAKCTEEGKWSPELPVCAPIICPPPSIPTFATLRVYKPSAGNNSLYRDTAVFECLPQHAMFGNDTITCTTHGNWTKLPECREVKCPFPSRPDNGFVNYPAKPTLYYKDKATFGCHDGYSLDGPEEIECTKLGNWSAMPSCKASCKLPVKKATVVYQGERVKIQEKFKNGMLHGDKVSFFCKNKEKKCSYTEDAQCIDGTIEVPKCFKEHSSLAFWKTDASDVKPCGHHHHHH
pIC50: < 4.80
//
molecule: --345: recombinant β2GPI deletion mutant with domains 3, 4, 5 (protein) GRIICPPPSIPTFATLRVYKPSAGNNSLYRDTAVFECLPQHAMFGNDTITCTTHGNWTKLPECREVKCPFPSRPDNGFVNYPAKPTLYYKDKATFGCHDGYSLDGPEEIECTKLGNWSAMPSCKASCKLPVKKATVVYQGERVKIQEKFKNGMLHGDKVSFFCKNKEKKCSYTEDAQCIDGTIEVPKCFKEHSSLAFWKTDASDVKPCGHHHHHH
pIC50: < 4.82
//
molecule: 1234-: recombinant β2GPI deletion mutant with domains 1, 2, 3, 4 (protein) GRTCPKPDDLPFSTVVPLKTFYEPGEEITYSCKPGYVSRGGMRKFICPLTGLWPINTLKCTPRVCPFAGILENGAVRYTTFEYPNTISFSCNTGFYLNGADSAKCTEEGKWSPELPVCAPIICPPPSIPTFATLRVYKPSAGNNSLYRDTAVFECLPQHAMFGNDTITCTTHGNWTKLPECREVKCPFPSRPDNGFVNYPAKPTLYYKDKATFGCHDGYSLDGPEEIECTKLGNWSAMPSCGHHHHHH
pIC50: 6.30
//
molecule: 123--: recombinant β2GPI deletion mutant with domains 1, 2, 3 (protein) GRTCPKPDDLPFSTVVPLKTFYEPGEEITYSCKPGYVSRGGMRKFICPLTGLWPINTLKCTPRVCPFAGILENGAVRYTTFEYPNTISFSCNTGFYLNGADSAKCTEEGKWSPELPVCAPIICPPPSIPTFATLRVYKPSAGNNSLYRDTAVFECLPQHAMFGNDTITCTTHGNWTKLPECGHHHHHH
pIC50: 6.52
